Tested on: NCI-H460 lung
Classes used: active, inactive

compound=COc1ccccc1-c1cc(=O)c2cc(C)cnc2[nH]1 label_class=inactive
compound="O=C1NC(=O)C(N2C(=O)c3ccccc3C2=O)CC1O (centres undefined)" label_class=inactive
compound=CCOC(=O)C1=C(C)N(c2ccc(Cl)cc2)[C@]2(C#N)C(O)=C(Cl)C(Cl)=C(O)[C@]12C#N label_class=inactive
compound=Cc1ccc(/C=N\NC(=O)c2[nH]c3ccc(F)cc3c2-c2ccccc2)cc1 label_class=active
compound=COc1cc2nc(N3CCCC3)nc(NCCc3ccccc3)c2cc1OC label_class=inactive
compound=O=C1c2c(c3c4ccccc4[nH]c3c3ccc4ccccc4c23)C(=O)N1CCN1CCNCC1 label_class=inactive
compound=CCCCCCCCCCCCCCCCCC[n+]1ccc2c(C)c3c(c(C)c2c1)c1cc(O)ccc1n3CC label_class=inactive
compound="COc1ccc2c(c1)N(CCO)C1=C(C(=O)OC1)C2c1cccc(F)c1 (centres undefined)" label_class=active
compound="N#CC1(C(N)=O)C(c2ccc(Cl)cc2)CC(=O)CC1c1ccc(Cl)cc1 (centres undefined)" label_class=inactive
compound=Fc1ccc(/C=N/n2c(-c3ccc(F)c(Cl)c3)nn(CNc3ccccc3C(F)(F)F)c2=S)cc1 label_class=inactive
compound=c1cnn2ncc(-c3ccnc(NCCCN4CCOCC4)n3)c2c1 label_class=inactive
compound=O=S(=O)(Nc1cc(Sc2cccc3cccnc23)c(O)c2ccccc12)c1ccc(F)cc1 label_class=inactive
compound=CO/N=C(\COc1ccc2c(c1)[nH]c1ccccc12)c1ccc(F)cc1 label_class=inactive
compound="O=C1OCC2=C1C(c1ccc(Cl)c(Cl)c1)c1cc3c(cc1N2CCO)OCCO3 (centres undefined)" label_class=active
compound="O=C1OCC2=C1C(c1ccccc1)c1cc3c(cc1N2)OCO3 (centres undefined)" label_class=active
compound=CN=c1ccc2nc3ccc(N)cc3sc-2c1 label_class=inactive
compound="OCc1ccc(N2CCCC2c2ccccc2)cc1Cl (centres undefined)" label_class=inactive
compound=COc1cc2c3c(n(C)c(=O)c2cc1OC)-c1cc2c(cc1/C3=C\CCCCN1C(=O)c3ccccc3C1=O)OCO2 label_class=inactive
compound="CC(C)C[C@H](NC(=O)CNC(=O)c1cc(Cl)ccc1Cl)B1OC(=O)CC(CC(=O)O)(C(=O)O)O1 (some centres undefined)" label_class=active

* * *

Tested on: A498 renal
TEST: NCI tumour cell line growth inhibition, 48 h
Listing: TGI of selected molecules
ASSAY_METRIC: TGI (µM)

molecule="CS(=O)(=O)OCC1CN(S(C)(=O)=O)c2cc(O)ccc21 (stereo not given)" reported_relation== observed_result=7.81
molecule="CN1C(=O)N(C)C2C1NN=c1s/c(=C\\c3ccc(C(F)(F)F)cc3)c(=O)n12 (stereo not given)" reported_relation== observed_result=34.6
molecule=CN=c1ccc2nc3ccc(N)cc3sc-2c1 reported_relation=> observed_result=100
molecule="CCOC(=O)C1C(c2ccc3c(c2)OCO3)c2c([nH][nH]c2=O)CC1(C)O (stereo not given)" reported_relation=> observed_result=100
molecule=O=C(Nc1ccc(OCc2nnc(-c3ccc(Cl)cc3)o2)c(F)c1)Nc1ccc(Cl)c(C(F)(F)F)c1 reported_relation== observed_result=7.43
molecule="COC(=O)[C@@H]1CC(C(C[N+](=O)[O-])c2ccc(O[Si](C)(C)C(C)(C)C)cc2)C(=O)N1C(=O)OC(C)(C)C (stereo not given in full)" reported_relation=> observed_result=100
molecule="OCC12C3C4C5C3C1C5C42 (stereo not given)" reported_relation=> observed_result=100
molecule="CCN(CC)CC1CCCCN1CC(=O)N1c2ccccc2C(=O)Nc2cccnc21 (stereo not given)" reported_relation=> observed_result=100
molecule=COc1cc(C(=O)C/C(CCC(=O)Nc2ccccc2[N+](=O)[O-])=N\NC(N)=O)ccc1O reported_relation=> observed_result=100
molecule="O=C1OCC2=C1C(c1ccccc1)c1cc3c(cc1N2)OCO3 (stereo not given)" reported_relation== observed_result=0.498

* * *

Tested on: M19-MEL melanoma
TEST: NCI tumour cell line growth inhibition, 48 h
ASSAY_METRIC: TGI

molecule="CCCP1(=O)C=C(C)C(=C(Cl)Cl)C(C)=C1 (configuration not stated)" experimental_system="M19-MEL melanoma" assay_metric=TGI observed_result="> 100 µM"
molecule="O=c1nc(NC2CCCCO2)ccn1CCO (configuration not stated)" experimental_system="M19-MEL melanoma" assay_metric=TGI observed_result="> 100 µM"
molecule="Fc1ccc(C2SCc3nc4ccccc4n32)c(F)c1 (configuration not stated)" experimental_system="M19-MEL melanoma" assay_metric=TGI observed_result="> 100 µM"
molecule="CC(=O)NC(CCCNC(=O)N(CCCl)N=O)C(=O)NCc1ccccc1 (configuration not stated)" experimental_system="M19-MEL melanoma" assay_metric=TGI observed_result="> 100 µM"
molecule=CN(N=O)C(=O)ON1C(=O)CCC1=O experimental_system="M19-MEL melanoma" assay_metric=TGI observed_result="> 100 µM"
molecule="C=CC1(NC(=O)c2ccccc2)CCC(C(C)(C)C)CC1 (configuration not stated)" experimental_system="M19-MEL melanoma" assay_metric=TGI observed_result="84.4 µM"
molecule=O=c1[nH]cc(COCCCO)c(=O)[nH]1 experimental_system="M19-MEL melanoma" assay_metric=TGI observed_result="> 100 µM"
molecule="CC(=O)Oc1cc2c(cc1OC(C)=O)OCC(c1ccccc1)C2 (configuration not stated)" experimental_system="M19-MEL melanoma" assay_metric=TGI observed_result="45.7 µM"
molecule="CC(=O)C(CN(CC(C)C)CC(C)C)C(c1ccccc1)c1c(O)c2ccccc2oc1=O (configuration not stated)" experimental_system="M19-MEL melanoma" assay_metric=TGI observed_result="> 100 µM"
molecule=Cc1c(/C=N/N=C/c2[nH]c(C(=O)OC(C)(C)C)c(C)c2C)[nH]c(C(=O)OC(C)(C)C)c1C experimental_system="M19-MEL melanoma" assay_metric=TGI observed_result="> 100 µM"
molecule="O=C(O)c1ccc(C2COc3ccc(Cl)cc3C2)cc1 (configuration not stated)" experimental_system="M19-MEL melanoma" assay_metric=TGI observed_result="> 100 µM"
molecule="c1ccc2c(c1)C1CCCCCC21N1CCOCC1 (configuration not stated)" experimental_system="M19-MEL melanoma" assay_metric=TGI observed_result="> 100 µM"
molecule=COc1ccc(C=O)c([N+](=O)[O-])c1 experimental_system="M19-MEL melanoma" assay_metric=TGI observed_result="> 100 µM"
molecule="O=C1OC(Cc2ccccc2)(N2CCCC2=O)C1c1ccccc1 (configuration not stated)" experimental_system="M19-MEL melanoma" assay_metric=TGI observed_result="> 100 µM"
molecule="COc1cc2c(c(OC)c1OC)-c1ccc(SC)c(=O)cc1C(NC(=O)c1ccccc1)CC2 (configuration not stated)" experimental_system="M19-MEL melanoma" assay_metric=TGI observed_result="> 100 µM"
molecule="Cc1cccc(C)c1NC(=O)/C(=N/NC(N)=S)C(C)C(=O)c1ccc(Cl)cc1 (configuration not stated)" experimental_system="M19-MEL melanoma" assay_metric=TGI observed_result="> 100 µM"
molecule=N#CC(=C1C=CC(=NO)C=C1)c1ccc(Cl)cc1 experimental_system="M19-MEL melanoma" assay_metric=TGI observed_result="46.9 µM"
molecule=Clc1ccc(Nc2nc3ccccc3nc2-c2cccs2)cc1Cl experimental_system="M19-MEL melanoma" assay_metric=TGI observed_result="> 100 µM"
molecule=CC1(C)OC(=O)C(C#N)=C1/C=C/c1coc2ccc(Cl)cc2c1=O experimental_system="M19-MEL melanoma" assay_metric=TGI observed_result="> 100 µM"
molecule="Cc1[nH]c2ccccc2c1C(=O)CC1(O)C(=O)Nc2c(Cl)cc(Cl)cc21 (configuration not stated)" experimental_system="M19-MEL melanoma" assay_metric=TGI observed_result="24.6 µM"
molecule="O=C1CC(c2c[nH]c3ccccc23)C(=O)N1 (configuration not stated)" experimental_system="M19-MEL melanoma" assay_metric=TGI observed_result="> 100 µM"
molecule=COc1ccc(-c2cc(Cc3cccs3)c(=O)[nH]n2)cc1 experimental_system="M19-MEL melanoma" assay_metric=TGI observed_result="> 100 µM"

* * *

Tested on: LXFL 529 NSCLC
TEST: NCI tumour cell line growth inhibition, 48 h
Where a SMILES comes first, the peptide text is derived from it. The star is where a group is joined. Boc = CC(C)(C)OC(=O)*
ASSAY_METRIC: TGI

molecule=C[N+](C)(C)CCc1ccccc1 assay_metric=TGI observed_result="> 100 µM"
molecule="CC(C)(C)OC(=O)NC(Cc1ccc(O)cc1)C(=O)N1CCCC1C(=O)O (stereo not drawn) (Boc-Tyr-Pro-OH; configuration not given here)" assay_metric=TGI observed_result="> 100 µM"
molecule="C/C=C1\\CN2CCc3c([nH]c4ccccc34)C2CC1C(=O)OC (stereo not given)" assay_metric=TGI observed_result="> 322 µM"
molecule=COc1ccc(-c2cc(Cc3cccs3)c(=O)[nH]n2)cc1 assay_metric=TGI observed_result="> 100 µM"
molecule=CS(=O)(=O)c1ccc(-c2cc(-c3ccc(S(C)(=O)=O)cc3)[n+](-c3cc(-c4ccc(S(C)(=O)=O)cc4)c([O-])c(-c4ccc(S(C)(=O)=O)cc4)c3)c(-c3ccc(S(C)(=O)=O)cc3)c2)cc1 assay_metric=TGI observed_result="> 100 µM"
molecule=CC1(O)C=CC(=O)C=C1 assay_metric=TGI observed_result="26.4 µM"
molecule="CCCP1(=O)C=C(C)C(=C(Cl)Cl)C(C)=C1 (stereo not given)" assay_metric=TGI observed_result="> 100 µM"
molecule="Cc1ccc2c(C3Cc4ccccc4N3C(=O)/C=C\\C(=O)O)c(C)[nH]c2c1 (stereo not given)" assay_metric=TGI observed_result="42.9 µM"
molecule=COC(=O)c1onc(-c2c(OC)cc(OC)cc2OC)c1C(=O)OC assay_metric=TGI observed_result="> 100 µM"
molecule=C#C[C@]1(O)CCCC2=CC(=O)CC[C@@]21C assay_metric=TGI observed_result="> 100 µM"
